# Test system: C. elegans VP596 Pgst-4::GFP/RFP ratio, acrylamide, 24 h
# Method summary: inhibition of acrylamide-induced Pgst-4::GFP reporter, dose response, SKN-1 inhibitor project, whole organism, GFP/RFP fluorescence ratio, set 2, strain VP596 (AID 651563);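 note: red signal is driven by the dop-3 promoter and serves as the normalizer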
The source made the active and inactive calls.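 Rule for the calls: active = compounds whose IC50 is 20 micromolar or lower, counted as confirmed SKN-1 reporter blockers; inactive = the rest.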
Measured IC50 of individual entries
Measurement type: IC50

* N/C(=N\OC(=O)c1cc(Br)ccc1Cl)c1ccccn1 | 53.5 µM (inactive)
* Cc1ccc(C=Cc2ccccn2)cc1 | > 100 µM (inactive)
* CC(C)c1ccc(C(=O)Nc2ccc(CN3CCOCC3)cc2)cc1 | 4.79 µM
* Brc1cccc(OCCSc2ncccn2)c1 | > 100 µM (inactive)
* O=[N+]([O-])c1ccc(Nc2ccccc2)cc1 | 12.2 µM
* CSc1ccc(-c2cc(=O)c3ccccc3o2)cc1 | 17.5 µM
* Cc1cc(OCc2cccc(Cl)c2)c(C)cc1CN1CCOCC1 | 15.2 µM
* CCOC(=O)c1c(-c2ccc(-c3ccccc3)cc2)csc1NC(=O)CNCCN(C)C | 10.9 µM
* C(=C\c1nc(-c2ccncc2)no1)/c1ccccc1 | 19.1 µM
* O=C(Nc1nc(-c2ccc(Cl)s2)cs1)c1ccccc1 | 13.2 µM
* c1ccc2oc(SCc3nc4ccccc4s3)nc2c1 | 27.4 µM (inactive)
* O=c1c2ccccc2ccc2ccccc12 | 33.8 µM (inactive)
* CCc1nc2c(OCc3ccc(C(F)(F)F)cc3)cccn2c1N(C)C(=O)c1ccncc1 | 3.57 µM
* Clc1ccc(-c2nnc(-c3ccco3)o2)cc1 | 15.8 µM
* O=C(Nc1ccc(Cl)c(Cl)c1)c1ccco1 | 45.4 µM (inactive)
* Fc1ccc(-n2nnc(-c3nccs3)n2)cc1 | 24.4 µM (inactive)
* O=C(Sc1ccc(Cl)cc1)c1ccccn1 | > 100 µM (inactive)
* CCN(CC)c1ccc(/C=C2\C(=O)c3ccc(C(=O)O)cc3C2=O)cc1 | 12.2 µM
* Fc1ccc(-n2nnc(-c3cccnc3)n2)cc1 | 24.8 µM (inactive)
* CCCCCCCCNc1ncnc2ccccc12 | > 100 µM (inactive)
* N#Cc1cncc(C#Cc2ccccc2)c1 | 31 µM (inactive)
* O=[N+]([O-])c1ccc(COc2ccc(CN3CCCCC3)cc2)cc1 | 8.89 µM
* O=C(c1ccc(Cl)cc1)c1cc([N+](=O)[O-])ccc1N1CCOCC1 | > 100 µM (inactive)
* O=C(/C=C/Nc1ccc(Br)cc1F)c1ccco1 | 2.19 µM
* Fc1ccc(Nc2cccc3nccnc23)cc1 | 47.2 µM (inactive)
* O=C(/C=C/c1ccco1)Nc1nc(-c2ccccc2)cs1 | 42.6 µM (inactive)

---

# Tested on: C. elegans VP596 Pgst-4::GFP/RFP ratio, acrylamide, 24 h
# Method summary: inhibition of acrylamide-induced Pgst-4::GFP reporter, dose response, SKN-1 inhibitor project, whole organism, GFP/RFP fluorescence ratio, set 2, strain VP596 (AID 651563);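 note: red signal is driven by the dop-3 promoter and serves as the normalizer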
Calls of active or inactive are those of the source.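 The calls were made as follows: active = compounds whose IC50 is 20 micromolar or lower, counted as confirmed SKN-1 reporter blockers; inactive = the rest.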
Labels: 1.0 for active, 0.0 for inactive

• Cc1ccc(NC(=O)c2ccc(F)cc2F)cc1 = 0.0
• CCc1ccc(C(=O)Nc2ccc3nc(C)ccc3c2)cc1 = 1.0
• O=C(/C=C/Nc1ccccc1F)c1cccs1 = 0.0
• Clc1ccsc1-c1ccc2ccccc2n1 = 0.0
• COc1c(C(=O)Nc2nccs2)ccc2ccccc12 = 0.0
• O=[N+]([O-])c1ccc(OCc2cnc(Cl)s2)cc1 = 1.0
• O=C(Nc1nc(-c2ccc(Cl)s2)cs1)c1cccs1 = 1.0
• Fc1ccc(CSc2ncnc3ccccc23)cc1 = 0.0
• CCOc1ccc(-c2nc(-c3cccnc3)no2)cc1 = 1.0
• Clc1ccc(-c2nc(-c3ccncc3)no2)c(Cl)c1 = 0.0
• Clc1ccc(OCc2nc(-c3ccncc3)no2)c(Br)c1 = 0.0
• c1csc(-c2nc(-c3ccncc3)no2)c1 = 0.0
• O=C(/C=C/c1cccs1)c1ccc(Br)cc1 = 0.0
• Clc1ccccc1-c1nnc(-c2ccccc2Cl)o1 = 1.0
• CC1=NOC(=O)/C1=C/c1ccc(-c2ccc(Cl)cc2)o1 = 0.0
• O=C(Nc1ccc(-c2nnc(-c3ccccc3)o2)cc1)c1ccc(Br)o1 = 0.0
• Clc1ccc(-c2nnc(-c3ccccc3)o2)c(Cl)c1 = 1.0
• Brc1ccc2nc(N3CCCC3)sc2c1 = 0.0
• CCn1nccc1C(=O)Nc1ccc(Cl)c(Cl)c1 = 0.0

---

# Tested on: C. elegans VP596 Pgst-4::GFP/RFP ratio, acrylamide, 24 h
# Method summary: inhibition of acrylamide-induced Pgst-4::GFP reporter, dose response, SKN-1 inhibitor project, whole organism, GFP/RFP fluorescence ratio, set 2, strain VP596 (AID 651563);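 note: red signal is driven by the dop-3 promoter and serves as the normalizer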
Activity calls are given as the source filed them.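 Rule for the calls: active = compounds whose IC50 is 20 micromolar or lower, counted as confirmed SKN-1 reporter blockers; inactive = the rest.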
Labels: active, inactive

- O=C(/C=C/Nc1ccc(F)c(F)c1)c1cccs1: active
- O=C(/C=C/c1ccc(Cl)cc1Cl)Nc1ccc(CN2CCOCC2)cc1: inactive
- O=C(C=Cc1cccs1)c1ccc(Cl)s1: active
- O=C(Nc1nc(-c2ccccc2)cs1)c1cccs1: inactive
- CCCCOc1ccc(C(=O)OC2CC(C)N(C)CC2C)cc1 (configuration not stated): inactive
- COc1cc(SC)ccc1C(=O)Nc1nccs1: inactive
- Cc1ccc2nc(-c3ccc(NC(=S)NC4CC(C)(C)NC(C)(C)C4)cc3)sc2c1: active

---

Measured IC50 of individual entries
# System: C. elegans VP596 Pgst-4::GFP/RFP ratio, acrylamide, 24 h
# Method summary: inhibition of acrylamide-induced Pgst-4::GFP reporter, dose response, SKN-1 inhibitor project, whole organism, GFP/RFP fluorescence ratio, set 2, strain VP596 (AID 651563);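 note: red signal is driven by the dop-3 promoter and serves as the normalizer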
Active and inactive are the calls of the source.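 How the source made its calls: active means compounds whose IC50 is 20 micromolar or lower, counted as confirmed SKN-1 reporter blockers; inactive means the rest.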
Measurement type: IC50

• Clc1ccc(-c2cc(CSc3ccccc3)on2)cc1 = > 100 µM (inactive)
• O=C(Nc1nccs1)c1ccc2ccccc2c1 = 23.8 µM (inactive)
• O=C(NCc1ccncc1)c1ccc(-c2ccc(F)c(F)c2)c2ccoc12 = 29.8 µM (inactive)
• CCSc1nnc(-c2ccc(Cl)cc2Cl)o1 = 58.5 µM (inactive)
• Clc1ccc(C=Cc2ccccn2)cc1 = 10.4 µM
• Brc1ccc(-c2cn3ccccc3n2)s1 = 18.1 µM
• CCCCOC(=O)Nc1ccc(C(C)C)cc1 = 76.2 µM (inactive)

---

# Test system: C. elegans VP596 Pgst-4::GFP/RFP ratio, acrylamide, 24 h
# Method summary: inhibition of acrylamide-induced Pgst-4::GFP reporter, dose response, SKN-1 inhibitor project, whole organism, GFP/RFP fluorescence ratio, set 2, strain VP596 (AID 651563);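 note: red signal is driven by the dop-3 promoter and serves as the normalizer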
The source made the active and inactive calls.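 The calls were made as follows: active = compounds whose IC50 is 20 micromolar or lower, counted as confirmed SKN-1 reporter blockers; inactive = the rest.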
Labels: yes (1) for active, no (0) for inactive

- O=C(Nc1ccc(Cl)cn1)c1ccccc1F: no (0)
- Brc1ccc(CSc2nnc(-c3cccnc3)o2)cc1: no (0)
- c1ccc(-c2ccc(-n3ccnc3)cc2)cc1: yes (1)
- CCOc1cc(CNCCSc2nnnn2C)cc(Br)c1OCc1ccc(F)cc1: yes (1)
- Clc1ncc(CSc2ccccc2)s1: no (0)
- c1ccc(-c2cnc(-c3ccccc3)nn2)cc1: no (0)
- C=CCSc1ncc(-c2ccccc2)cn1: no (0)
- O=C(Nc1nc2c(ccc3ccccc32)s1)c1ccco1: yes (1)
- O=C(CC(O)(C(F)(F)F)C(F)(F)F)Nc1ccc(Cl)c(Cl)c1: no (0)
- O=[N+]([O-])c1ccc2cn(-c3ccccc3)nc2c1: yes (1)
- CN1CCN(c2ccc(NC(=O)c3ccc(Oc4ccccc4)cc3)cc2)CC1: yes (1)
- O=C(/C=C/Nc1ccc(F)cc1F)c1cccs1: yes (1)
- Clc1ccc(Nc2nc(-c3cccs3)cs2)nc1: yes (1)

---

# System: C. elegans VP596 Pgst-4::GFP/RFP ratio, acrylamide, 24 h
# Method summary: inhibition of acrylamide-induced Pgst-4::GFP reporter, dose response, SKN-1 inhibitor project, whole organism, GFP/RFP fluorescence ratio, set 2, strain VP596 (AID 651563);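 note: red signal is driven by the dop-3 promoter and serves as the normalizer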
Calls of active or inactive are those of the source.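 Rule for the calls: active = compounds whose IC50 is 20 micromolar or lower, counted as confirmed SKN-1 reporter blockers; inactive = the rest.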
Labels: active, inactive

- O=C(Nc1ccc(Cl)c(C(F)(F)F)c1)c1ccco1: inactive
- CC/C(=C\c1ccc(Cl)cc1)c1ccncc1: inactive
- c1ccc(-c2nc3cc4ccccc4cc3[nH]2)nc1: active
- Clc1ccc(OCCCc2nc(-c3ccncc3)no2)c(Cl)c1: inactive
- CCCn1nc2cc(C(=O)NCc3ccc(OC(F)(F)F)cc3)ccc2c1OCC: inactive
- O=C(Nc1nccs1)c1ccc2ccccc2n1: active
- Fc1ccc(-c2csc(Nc3ccccn3)n2)cc1: active
- Cc1ccc(Nc2nc(-c3cccs3)cs2)nc1: inactive
- Cn1c(=O)c2c(-c3ccccc3)n(-c3ccc(N)cc3)cc2n(C)c1=O: inactive
- Fc1ccccc1-c1nc(-c2ccncc2)no1: inactive
- c1ccc(-c2nc(-c3ccncc3)no2)cc1: inactive
- O=C(Nc1ccc(OC(F)F)c(Cl)c1)c1cccc(OC(F)F)c1: inactive
- Clc1ccc(Cn2cc(Br)cn2)cc1Cl: inactive
- CC1=NN(c2ccccc2)C(=O)/C1=C\C=C1/N(C)c2ccccc2C1(C)C: active
- Clc1ccc(OCc2cnc(Cl)s2)cc1: inactive
- Fc1ccc(OCc2nc(-c3cccs3)no2)cc1: inactive
- CN(C)C(CNC(=O)CCc1nc2cc(Cl)ccc2n(Cc2ccccc2)c1=O)c1ccccc1 (stereo unspecified): inactive
- COc1cc(CNC2CCCC2)cc(Cl)c1OCc1ccc(F)cc1: active
- CC(C)c1ccc(-c2nc3ccccc3s2)cc1: inactive
- CN(C)CC(O)c1ccc(C=Cc2ccc(Cl)cc2)cc1 (stereo unspecified): active
- O=[N+]([O-])c1cccc(-c2c(-c3ccccc3)ncc3cc(F)ccc23)c1: inactive
- O=C(C=Cc1ccco1)c1ccc2ccccc2c1: inactive
- c1ccc(-n2nnc(-c3nccs3)n2)cc1: inactive
- CCOc1cc(CNC2CCCC2)cc(Cl)c1OCc1ccc(F)cc1: active
- Brc1ccc2oc(-c3ccn[nH]3)cc2c1: active
- CCCCCNC(=O)c1ccccc1SC: inactive
